Data origin, for the record: patent US10202361B2

Test system: field poppy (Papaver rhoeas)
Measurement Description: Test D pre-/postemergence controlled growth environment herbicide test
Type: in vivo
Condition Description: Preemergence, 125 g ai/ha, scale 0 to 100
From the text: […]
Listed below: Plant response rating values for each entry.
Would you mind answering with just the numeric figure?

Solved cases (3 shown):
Ask | Param item = COc1cc(=O)n(-c2ccc(F)cc2)nc1Cc1ccnc(C(F)(F)F)c1 [Compound 17] ; retrieve measured Plant response rating.
Reply | 100

Ask | Param item = Cc1cc(=O)n(-c2ccc(F)cc2)nc1Oc1ccnc(C(F)(F)F)c1 [Compound 14] ; retrieve measured Plant response rating.
Reply | 100

Ask | Param item = Cc1cc(=O)n(-c2ccc(F)cc2)nc1Cc1ccnc(C(F)(F)F)c1 [Compound 1] ; retrieve measured Plant response rating.
Reply | 95

Now for the compound whose Plant response rating we want.
Ask | Param item = Cc1cc(=O)n(-c2ccc(C(F)(F)F)cc2)nc1Cc1ccnc(C(F)(F)F)c1 [Compound 2] ; retrieve measured Plant response rating.
Reply | 100

----------
Test system: blackgrass (Alopecurus myosuroides)
Measurement Description: Test C pre-/postemergence greenhouse herbicide test
Assay type: in vivo
Condition Description: Alopecurus myosuroides, post-emergence; Blackgrass; Postemergence; 250 g ai/ha; read-out: Plant response rating
Text: […]
We label by threshold. Values of pest or weed control at 250 g/ha strictly beneath 20% are 1. Values of 20% and up are 0.

Check out these entries, answers already filled in.
Ask | Lab log: compare recorded pest or weed control at 250 g/ha with 20%; is it strictly lower for Cc1cc(=O)n(-c2ccc(F)cc2)nc1Oc1ccnc(C(F)(F)F)c1 ?
Reply | 0

Ask | Lab log: compare recorded pest or weed control at 250 g/ha with 20%; is it strictly lower for Cc1cc(=O)n(-c2ccc(F)cc2)nc1Cc1ccnc(C(F)(F)F)c1 ?
Reply | 1

Ask | Lab log: compare recorded pest or weed control at 250 g/ha with 20%; is it strictly lower for Cc1cc(=O)n(-c2ccc(C(F)(F)F)cc2)nc1Cc1ccnc(C(F)(F)F)c1 ?
Reply | 1

Next:
Ask | Lab log: compare recorded pest or weed control at 250 g/ha with 20%; is it strictly lower for Cc1cc(Oc2ccnc(C(F)(F)F)c2)nn(-c2ccc(C(F)(F)F)cc2)c1=O ?
Reply | 0

Ask | Lab log: compare recorded pest or weed control at 250 g/ha with 20%; is it strictly lower for COc1cc(=O)n(-c2ccc(F)cc2)nc1Cc1ccnc(C(F)(F)F)c1 ?
Reply | 1

Ask | Lab log: compare recorded pest or weed control at 250 g/ha with 20%; is it strictly lower for COc1cc(=O)n(-c2ccc(C(F)(F)F)cc2)nc1Cc1ccnc(C(F)(F)F)c1 ?
Reply | 1

----------
System: soybean (Glycine max)
Measurement Description: Test C pre-/postemergence greenhouse herbicide test
Format: in vivo
Condition Description: Glycine max, pre-emergence; Soybean; Preemergence; 250 g ai/ha; read-out: Plant response rating
From the text: […]
Listed below: plant injury at 250 g/ha values for each entry.
Answer by giving the amount and then stating its unit.

Ask | Param item = Cc1cc(=O)n(-c2ccc(F)cc2)nc1Cc1ccnc(C(F)(F)F)c1 ; retrieve measured plant injury at 250 g/ha.
Reply | 98%

Ask | Param item = COc1cc(=O)n(-c2ccc(C(F)(F)F)cc2)nc1Cc1ccnc(C(F)(F)F)c1 ; retrieve measured plant injury at 250 g/ha.
Reply | 75%

Ask | Param item = Cc1cc(=O)n(-c2ccc(C(F)(F)F)cc2)nc1Cc1ccnc(C(F)(F)F)c1 ; retrieve measured plant injury at 250 g/ha.
Reply | 60%

Ask | Param item = CCOc1cc(=O)n(-c2ccc(F)cc2)nc1Cc1ccnc(C(F)(F)F)c1 ; retrieve measured plant injury at 250 g/ha.
Reply | 65%

Next:
Ask | Param item = Cc1cc(=O)n(-c2ccc(F)cc2)nc1Oc1ccnc(C(F)(F)F)c1 ; retrieve measured plant injury at 250 g/ha.
Reply | 75%

Ask | Param item = COc1cc(=O)n(-c2ccc(F)cc2)nc1Cc1ccnc(C(F)(F)F)c1 ; retrieve measured plant injury at 250 g/ha.
Reply | 98%

----------
Test system: kochia (Kochia scoparia)
Measurement Description: Test C pre-/postemergence greenhouse herbicide test
Format: in vivo
Condition Description: Postemergence, 125 g ai/ha
Listed below: Plant response rating values for each entry.
Would you mind answering with just the numeric figure?

Solved cases (3 shown):
Ask | Param item = COc1cc(=O)n(-c2ccc(C(F)(F)F)cc2)nc1Cc1ccnc(C(F)(F)F)c1 ; retrieve measured Plant response rating.
Reply | 90

Ask | Param item = Cc1cc(=O)n(-c2ccc(F)cc2)nc1Oc1ccnc(C(F)(F)F)c1 ; retrieve measured Plant response rating.
Reply | 55

Ask | Param item = COc1cc(=O)n(-c2ccc(F)cc2)nc1Cc1ccnc(C(F)(F)F)c1 ; retrieve measured Plant response rating.
Reply | 90

Next:
Ask | Param item = Cc1cc(=O)n(-c2ccc(C(F)(F)F)cc2)nc1Cc1ccnc(C(F)(F)F)c1 ; retrieve measured Plant response rating.
Reply | 90

Ask | Param item = Cc1cc(Oc2ccnc(C(F)(F)F)c2)nn(-c2ccc(C(F)(F)F)cc2)c1=O ; retrieve measured Plant response rating.
Reply | 90

Ask | Param item = Cc1cc(=O)n(-c2ccc(F)cc2)nc1Cc1ccnc(C(F)(F)F)c1 ; retrieve measured Plant response rating.
Reply | 85

----------
System: ducksalad (Heteranthera limosa)
Measurement Description: Test B flooded paddy test
Format: in vivo
Condition Description: Flood, 125 g ai/ha; scale of 0 to 100, 0 is no effect, 100 is complete control; 13 to 15 d
Experimental Readout: Plant response rating, Ducksalad

Ask | Param item = Cc1cc(=O)n(-c2cccc(C(F)(F)F)c2)nc1Oc1ccnc(C(F)(F)F)c1 [Compound 4] ; retrieve measured Plant response rating, Ducksalad.
Reply | 65

Ask | Param item = CCCOc1cc(=O)n(-c2ccc(C(F)(F)F)cc2)nc1Cc1ccnc(C(F)(F)F)c1 [Compound 19] ; retrieve measured Plant response rating, Ducksalad.
Reply | 0

Now for the molecule whose Plant response rating, Ducksalad we want.
Ask | Param item = CN(C)c1cc(=O)n(-c2ccc(F)cc2)nc1Cc1ccnc(C(F)(F)F)c1 [Compound 20] ; retrieve measured Plant response rating, Ducksalad.
Reply | 0

----------
Listed below: Plant response rating values for each entry.
Tested on: radish, wild (wild radish, Raphanus raphanistrum)
Measurement Description: Test D pre-/postemergence controlled growth environment herbicide test
Type: in vivo
Condition Description: Preemergence, 62 g ai/ha, scale 0 to 100
Would you mind answering with just the numeric figure?

Solved cases (3 shown):
Ask | Param item = Cc1cc(=O)n(-c2ccc(C(F)(F)F)cc2)nc1Cc1ccnc(C(F)(F)F)c1 [Compound 2] ; retrieve measured Plant response rating.
Reply | 100

Ask | Param item = COc1cc(=O)n(-c2ccc(F)cc2)nc1Cc1ccnc(C(F)(F)F)c1 [Compound 17] ; retrieve measured Plant response rating.
Reply | 100

Ask | Param item = Cc1cc(=O)n(-c2ccc(F)cc2)nc1Oc1ccnc(C(F)(F)F)c1 [Compound 14] ; retrieve measured Plant response rating.
Reply | 100

Now for the molecule whose Plant response rating we want.
Ask | Param item = Cc1cc(=O)n(-c2ccc(F)cc2)nc1Cc1ccnc(C(F)(F)F)c1 [Compound 1] ; retrieve measured Plant response rating.
Reply | 75

----------
Test system: johnsongrass (Sorghum halepense)
Measurement Description: Test C pre-/postemergence greenhouse herbicide test
Assay type: in vivo
Condition Description: Sorghum halepense, post-emergence; Johnsongrass; Postemergence; 125 g ai/ha; read-out: Plant response rating
Experimental Readout: pest or weed control at 125 g/ha (%)
Write it as a number; the unit % goes unstated.

Ask | Param item = Cc1cc(Oc2ccnc(C(F)(F)F)c2)nn(-c2ccc(C(F)(F)F)cc2)c1=O ; retrieve measured pest or weed control at 125 g/ha.
Reply | 20

Ask | Param item = COc1cc(=O)n(-c2ccc(F)cc2)nc1Cc1ccnc(C(F)(F)F)c1 ; retrieve measured pest or weed control at 125 g/ha.
Reply | 5

Next:
Ask | Param item = COc1cc(=O)n(-c2ccc(C(F)(F)F)cc2)nc1Cc1ccnc(C(F)(F)F)c1 ; retrieve measured pest or weed control at 125 g/ha.
Reply | 20

Ask | Param item = Cc1cc(=O)n(-c2ccc(F)cc2)nc1Oc1ccnc(C(F)(F)F)c1 ; retrieve measured pest or weed control at 125 g/ha.
Reply | 25

Ask | Param item = Cc1cc(=O)n(-c2ccc(C(F)(F)F)cc2)nc1Cc1ccnc(C(F)(F)F)c1 ; retrieve measured pest or weed control at 125 g/ha.
Reply | 10

Ask | Param item = Cc1cc(=O)n(-c2ccc(F)cc2)nc1Cc1ccnc(C(F)(F)F)c1 ; retrieve measured pest or weed control at 125 g/ha.
Reply | 5

----------
Tested on: deadnettle (henbit deadnettle, Lamium amplexicaule)
Measurement Description: Test D pre-/postemergence controlled growth environment herbicide test
Assay type: in vivo
Condition Description: Preemergence, 62 g ai/ha, scale 0 to 100
Listed below: Plant response rating values for each entry.
Would you mind answering with just the numeric figure?

Solved cases (3 shown):
Ask | Param item = Cc1cc(=O)n(-c2ccc(F)cc2)nc1Cc1ccnc(C(F)(F)F)c1 ; retrieve measured Plant response rating.
Reply | 40

Ask | Param item = Cc1cc(=O)n(-c2ccc(C(F)(F)F)cc2)nc1Cc1ccnc(C(F)(F)F)c1 ; retrieve measured Plant response rating.
Reply | 100

Ask | Param item = Cc1cc(=O)n(-c2ccc(F)cc2)nc1Oc1ccnc(C(F)(F)F)c1 ; retrieve measured Plant response rating.
Reply | 40

Next:
Ask | Param item = COc1cc(=O)n(-c2ccc(F)cc2)nc1Cc1ccnc(C(F)(F)F)c1 ; retrieve measured Plant response rating.
Reply | 100
